assayed_target: human plasma type α1,3FucT (Homo sapiens, UniProt Q11128)
assay_protocol: Substrate specificity and inhibition study of α1,3FucT (GDP-14C-Fuc transfer assay)
Format: biochemical
condition: acceptor substrate; 0.1 mM GDP-Fuc, 10 mM MnCl2
outcome_measure: Km (mM)
Your answer should be a plain number; it is taken to be in mM.

Consider the following illustrative entries.
compound	recorded_result
CC(=O)NC1C(O)OC(CO)C(OC2OC(CO)C(O)C(OC3(C(=O)O)CC(O)C(NC(C)=O)C(C(O)C(O)CO)O3)C2O)C1O (centres unmarked)	100
CC(=O)N[C@@H]1[C@@H](O)[C@H](O[C@@H]2O[C@H](CO[C@]3(C(=O)O)C[C@H](O)[C@@H](NC(C)=O)[C@H]([C@H](O)[C@H](O)CO)O3)[C@H](O)[C@H](O)[C@H]2O)[C@@H](CO)O[C@H]1O	70
CC(=O)N[C@H]1C([C@H](O)[C@H](O)CO)O[C@@](OC2[C@H](O)C(O[C@H]3C(O)C=COC3CO)OC(CO)[C@@H]2O)(C(=O)O)C[C@H]1O (some centres unmarked)	64
C=CCO[C@@H]1O[C@H](CO)[C@@H](O[C@@H]2O[C@H](CO)[C@H](O)[C@H](O)[C@H]2O)[C@H](O)[C@H]1NC(C)=O	16

*Q* Consider the compound OC[C@H]1O[C@@H](O[C@H]2[C@H](O)[C@@H](O)C(O)S[C@@H]2CO)[C@H](O)[C@@H](O)[C@H]1O (some centres unmarked) . State its measured Km.
*A* 12

---

assayed_target: UniProt P08037
Sequence (P08037 79-402 limits assumed): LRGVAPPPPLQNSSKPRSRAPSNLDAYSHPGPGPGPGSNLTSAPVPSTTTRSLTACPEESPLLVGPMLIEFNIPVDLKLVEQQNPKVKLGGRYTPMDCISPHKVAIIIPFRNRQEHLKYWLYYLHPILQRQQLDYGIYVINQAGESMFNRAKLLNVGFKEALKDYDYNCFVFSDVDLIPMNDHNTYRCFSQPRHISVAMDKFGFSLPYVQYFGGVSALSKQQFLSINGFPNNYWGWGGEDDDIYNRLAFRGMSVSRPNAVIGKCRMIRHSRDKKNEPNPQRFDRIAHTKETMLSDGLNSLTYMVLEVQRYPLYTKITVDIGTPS
outcome_measure: Ki (µM)
Provide the reading as a plain figure in µM.

*Q* Give Ki for O=c1ccn([C@@H]2O[C@H](COP(=O)(O)OP(=O)(O)O)[C@@H](O)[C@H]2O)c(=O)[nH]1 [UDP, uridine 5′-diphosphate]
*A* 460

---

assayed_target: human plasma type α1,3FucT (Homo sapiens)
assay_protocol: Substrate specificity and inhibition study of α1,3FucT (GDP-14C-Fuc transfer assay)
Assay type: biochemical
condition: footnote of Table 3; read-out: Ki
outcome_measure: pKi
Recall that pKi is obtained by taking minus log10 of the concentration measured in molar.

*Q* Return pKi (reported value) for this compound: Nc1nc2c(ncn2[C@@H]2O[C@H](COP(=O)(O)OP(=O)(O)O)[C@@H](O)[C@H]2O)c(=O)[nH]1 [GDP, guanosine 5′-diphosphate]
*A* 1.72

---

assayed_target: α1,3/4Fucosyltransferase (Homo sapiens)
assay_protocol: Substrate specificity and inhibition study of α1,3/4FucT (GDP-14C-Fuc transfer assay)
condition: inhibitor concentration required to give 50% inhibition with 0.2 mM GDP-Fuc
Method: The assay procedure was essentially the same as described previously [Fukowska-Latallo et al, Gene & Development, 4:1288 (1990)] with some modifications. A stock mixture containing 0.25 mM GDP-^14C-Fuc (5000 cpm/mL), 6.25 mM ATP, 25 mM MnCl2 and 62.5 mM sodium cacodylate buffer, pH 6.2 was mixed freshly and kept on ice. […] The incubation was carried out at 37° C. for 30 to 240 minutes depending upon the acceptor under study. […] The radioactivity was counted on a scintillation counter. […]
outcome_measure: IC50 (mM)
Kindly provide the numeric value in mM only, without the unit symbol.

*Q* Recall and state the measured IC50 for OC[C@H]1NC[C@H](O)[C@@H](O)[C@@H]1O[C@@H]1O[C@H](CO)[C@H](O)[C@H](O)[C@H]1O .
*A* 40
